Cited source for all entries: ChEMBL document CHEMBL1201862

Please provide measured EC50 for the entries that follow.
Biological target: Protein RecA (Mycobacterium tuberculosis, UniProt P9WHJ3)
Sequence (P9WHJ3 whole entry): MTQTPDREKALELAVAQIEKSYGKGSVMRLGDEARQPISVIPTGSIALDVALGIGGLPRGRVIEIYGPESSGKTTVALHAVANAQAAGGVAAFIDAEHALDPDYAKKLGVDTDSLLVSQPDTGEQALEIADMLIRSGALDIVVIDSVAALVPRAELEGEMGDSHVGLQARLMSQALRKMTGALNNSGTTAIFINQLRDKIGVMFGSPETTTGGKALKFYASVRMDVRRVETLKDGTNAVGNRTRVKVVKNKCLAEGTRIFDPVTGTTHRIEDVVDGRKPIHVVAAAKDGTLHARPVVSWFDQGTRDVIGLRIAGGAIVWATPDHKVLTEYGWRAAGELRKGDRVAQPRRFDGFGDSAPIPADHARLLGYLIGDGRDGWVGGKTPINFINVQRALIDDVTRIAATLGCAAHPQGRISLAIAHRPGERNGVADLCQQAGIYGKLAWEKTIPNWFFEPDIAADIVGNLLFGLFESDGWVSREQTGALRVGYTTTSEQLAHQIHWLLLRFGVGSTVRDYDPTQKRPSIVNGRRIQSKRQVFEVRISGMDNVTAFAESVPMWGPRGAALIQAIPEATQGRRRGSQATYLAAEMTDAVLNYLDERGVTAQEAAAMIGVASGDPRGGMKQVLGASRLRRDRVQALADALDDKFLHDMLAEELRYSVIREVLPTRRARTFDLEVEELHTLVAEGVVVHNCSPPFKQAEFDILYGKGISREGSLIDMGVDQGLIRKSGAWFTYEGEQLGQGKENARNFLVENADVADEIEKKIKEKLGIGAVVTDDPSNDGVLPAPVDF
Test: Fluorescence Cell-Free Homogeneous Dose Retest to Identify Inhibitors of RecA-Intein Splicing Activity. [Related pubchem assays (depositor defined):AID2097, AID2223, AID489010, AID492950]
Assay type: functional
Active and inactive are the calls of the source. Cut-off read from the data, not from the text of the source: actives have a measured EC50 and inactives only a lower limit.

// known answers, use as guide
molecule: Cn1c(-[n+]2c(-c3ccccc3)cc(-c3ccccc3)cc2-c2ccccc2)nc2c([N+](=O)[O-])cccc21
measurement.kind: EC50
observed.measurement: 15.3 µM (active)
//
molecule: Cc1oc2cc([N+](=O)[O-])c(O)c([N+](=O)[O-])c2c1C(=O)c1ccc(Br)cc1
measurement.kind: EC50
observed.measurement: 7.96 µM (active)
//
molecule: CC1=NNC(=O)C1C(c1cccc(O)c1)C(C#N)C#N (stereo not drawn)
measurement.kind: EC50
observed.measurement: 12.7 µM (active)
//
molecule: N#Cc1ncc(Cc2ccccc2)nc1C#N
measurement.kind: EC50
observed.measurement: 1.71 µM (active)

// for each molecule in input: emit EC50
1. c1ccc(Nc2nc(NCc3ccco3)c3ccccc3n2)cc1
2. COc1cccc(NC(=O)c2nc(S(C)(=O)=O)ncc2Cl)c1
3. CCCCCCCCCCC[N+](C)(C)CC/C=C1/c2ccccc2Sc2ccc(Cl)cc21
4. O=c1cc(-c2ccc(Cl)cc2)[nH][nH]1
5. O=C(NC1C(=O)NNC1c1ccc(Cl)cc1)c1ccc(F)cc1 (stereo not drawn)
6. COc1ccc(-c2csc(Nc3ccc(O)cc3)n2)cc1
7. CCN(CC)S(=O)(=O)c1ccc(NN=C(C#N)C#N)cc1

Output line:
1: 12 µM (active); 2: 6.17 µM (active); 3: 10.1 µM (active); 4: 0.527 µM (active); 5: 4.94 µM (active); 6: 123 µM (active); 7: 15 µM (active)

Working through the 5 molecules below one at a time, give EC50 for each.
1. COC(=O)c1ccccc1NC1=C/C(=N\S(=O)(=O)c2cccs2)c2ccccc2C1=O
2. CCOc1cc(C(c2c(C)n[nH]c2O)c2c(C)n[nH]c2O)cc(Br)c1OC
3. O=S(=O)(c1ccc(Cl)c(Cl)c1)c1snnc1-c1ccccc1
4. C=CCn1c(N)c(C(=O)Nc2cccc(C)c2)c2nc3ccccc3nc21
5. COc1ccc(C(C(=O)NC2CCCCC2)N(C(=O)CCl)c2ccc(Cl)cc2)cc1 (stereo not drawn)

Output line:
0.0208 µM (inconclusive)
0.231 µM (active)
0.504 µM (active)
13.3 µM (active)
0.236 µM (active)

State the recorded EC50 for every item in the following list.
1. CC(=O)NC(=S)c1c(N)n(Cc2ccccc2)c(=O)n(C)c1=O
2. Cc1cc(C(=O)c2ccccc2)c(NC(=O)CCl)s1

Output line:
1: > 380 µM (inconclusive); 2: 2.83 µM (active)
